Entry source: patent US20250026849A1

- MEASURED TARGET: T1, BCMA (Homo sapiens (Human), UniProt Q02223 1-54, limits assumed)
- T1 sequence: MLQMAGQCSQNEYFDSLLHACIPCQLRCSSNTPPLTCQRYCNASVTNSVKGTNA
- MEASUREMENT DESCRIPTION: ELISA, format not described
- Design: unit not given here
For each record, check the reported ELISA_avg: if it is below 20 write Yes, else write No.

Ask: For this binder, is ELISA_avg lower than 20? D-domain SEQ ID NO: 80 (designed binder) MGSWSEFYTRLEAINNRLHALGGSEAELAAFEKEIAAFESELQAYKGKGNPEVEELRYTAALIRIYLQAYRHN
Result: Yes

Ask: Bench note: check whether D-domain SEQ ID NO: 153 (designed binder) MGSWMEFNVRLRAILDRLHALGGSEAELAAFEKEIAAFESELQAYKGKGNPEVELLRDKAAYIRFMLQAYRHN shows ELISA_avg below 20
Result: Yes

Ask: For D-domain SEQ ID NO: 239 (designed binder) MGSWDGFKHRLALIKWYLEALGGSEAELANFENWIAEFEQRLQYYKGKGNPEVEALRKEAAAIRDELQAYRHN , is the recorded ELISA_avg below the cut-off of 20?
Result: No

Ask: Check if ELISA_avg falls below 20 for D-domain SEQ ID NO: 263 (designed binder) MGSWTAFKYRLAIIKFYLEALGGSEAELAHFESYIAHFEDMLQHYKGKGNPEVEALRKEAAAIRDELQAYRHN .
Result: Yes

Ask: Input D-domain SEQ ID NO: 240 (designed binder) MGSWNGFKHRLAIIKWYLEALGGSEAELASFESYIAEFESGLQEYKGKGNPEVEALRKEAAAIRDELQAYRHN ; condition: ELISA_avg strictly below 20. Does it hold?
Result: Yes
